# assay text: dobutamine plasma levels in anesthetized rats after intravenous bolus and intranasal saline solution
# Assay type: in vivo
# measurement context: plasma; rat, intranasal saline solution 2.5 mg/kg; trapezoidal method; sampled 1-120 minutes; read-out: Area Under the Curve (AUC) (converted)
Where a name gives a salt, the structure may show the parent alone.
reported endpoint: AUC at 2 h (ng·h/mL)
One number for each entry, in ng·h/mL.

Q: Data request, read-out AUC at 2 h, for CC(CCc1ccc(O)cc1)NCCc1ccc(O)c(O)c1 (stereo not shown) [dobutamine hydrochloride]
A: 188
